These entries and their values trace back to patent US20070191349A1.

Can you tell me GI50 for the items I'm about to list?
# Test system: approximately 60 human tumour cell lines
Write the number in nM without appending the unit.

## Task What value of GI50 has been reported for the following molecule? COc1cc2c(cc1OCCCNC(=O)c1cc(NC(=O)c3cc(NC(=O)c4cc(NC(=O)CCCOc5cc6c(cc5OC)C(=O)N5CCC[C@H]5C=N6)cn4C)cn3C)cn1C)N=C[C@@H]1CCCN1C2=O
## Result 10

## Task What value of GI50 has been reported for the following molecule? COc1cc2c(cc1NC(=O)c1ccc(C(=O)Nc3cc4c(cc3OC)C(=O)N3CCC[C@H]3C=N4)n1C)N=C[C@@H]1CCCN1C2=O
## Result 1000

## Task What value of GI50 has been reported for the following molecule? COc1cc2c(cc1OCCCNC(=O)c1ccc(C(=O)NCCCOc3cc4c(cc3OC)C(=O)N3CCC[C@H]3C=N4)n1C)N=C[C@@H]1CCCN1C2=O
## Result 19000

## Task What value of GI50 has been reported for the following molecule? COc1cc2c(cc1NC(=O)c1cc(C(=O)Nc3cc4c(cc3OC)C(=O)N3CCC[C@H]3C=N4)n(C)c1)N=C[C@@H]1CCCN1C2=O
## Result 31600

## Task What value of GI50 has been reported for the following molecule? COc1cc2c(cc1OCCCC(=O)Nc1cc(C(=O)NCCCNC(=O)c3cc(NC(=O)CCCOc4cc5c(cc4OC)C(=O)N4CCC[C@H]4C=N5)cn3C)n(C)c1)N=C[C@@H]1CCCN1C2=O
## Result 10
